Each recorded value in this set is attributed to ChEMBL document CHEMBL1132183.

measured target: Alpha-1B adrenergic receptor (Rattus norvegicus) (UniProt P15823)
Sequence (whole entry): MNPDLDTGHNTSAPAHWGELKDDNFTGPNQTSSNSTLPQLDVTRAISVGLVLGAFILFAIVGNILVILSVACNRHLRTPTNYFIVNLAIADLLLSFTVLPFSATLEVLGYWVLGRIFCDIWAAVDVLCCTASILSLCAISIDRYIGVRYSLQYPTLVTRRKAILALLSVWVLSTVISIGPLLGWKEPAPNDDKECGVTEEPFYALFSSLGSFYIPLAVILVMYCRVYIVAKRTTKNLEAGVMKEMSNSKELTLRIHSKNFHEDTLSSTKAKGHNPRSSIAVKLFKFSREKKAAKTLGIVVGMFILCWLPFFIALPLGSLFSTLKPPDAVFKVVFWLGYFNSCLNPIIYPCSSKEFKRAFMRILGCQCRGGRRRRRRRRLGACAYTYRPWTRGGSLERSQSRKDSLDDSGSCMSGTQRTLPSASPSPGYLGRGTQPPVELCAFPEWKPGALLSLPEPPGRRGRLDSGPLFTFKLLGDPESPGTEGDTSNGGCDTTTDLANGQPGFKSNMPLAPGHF
assay summary: Antagonism of Alpha-1B adrenergic receptor subtype (-)-phenylephrine-induced contraction of rat spleen
Assay type: functional, tissue-based
Examples of compounds with documented pKb follow.
parameter measured: pKb

compound="COc1cccc(OC)c1O[C@@H]1CCC(NCC2COc3ccccc3O2)C1O (stereo in doubt; 8)" parameter_measured=pKb data_value=6.17
compound="COc1cccc(OC)c1O[C@@H]1CCC(NCC2COc3ccccc3O2)C1O (stereo in doubt; 7)" parameter_measured=pKb data_value=6.27
compound=O[C@H]1[C@@H](NC[C@H]2COc3ccccc3O2)CC[C@@H]1Oc1ccccc1 parameter_measured=pKb data_value=5.79
compound="COc1ccccc1O[C@@H]1CCC(NCC2COc3ccccc3O2)C1O (stereo in doubt; 6)" parameter_measured=pKb data_value=6.8
compound="COc1ccccc1N1CCN(CCN2C(=O)CC3(CCCC3)CC2=O)CC1 [BMY-7378]" parameter_measured=pKb data_value=7.55
